Origin of the recorded values: ChEMBL document CHEMBL1145915

- measured on: Integrin alpha-IIb/beta-3 (Homo sapiens, UniProt P05106+P08514)
- Sequence (P05106 27-788 limits assumed): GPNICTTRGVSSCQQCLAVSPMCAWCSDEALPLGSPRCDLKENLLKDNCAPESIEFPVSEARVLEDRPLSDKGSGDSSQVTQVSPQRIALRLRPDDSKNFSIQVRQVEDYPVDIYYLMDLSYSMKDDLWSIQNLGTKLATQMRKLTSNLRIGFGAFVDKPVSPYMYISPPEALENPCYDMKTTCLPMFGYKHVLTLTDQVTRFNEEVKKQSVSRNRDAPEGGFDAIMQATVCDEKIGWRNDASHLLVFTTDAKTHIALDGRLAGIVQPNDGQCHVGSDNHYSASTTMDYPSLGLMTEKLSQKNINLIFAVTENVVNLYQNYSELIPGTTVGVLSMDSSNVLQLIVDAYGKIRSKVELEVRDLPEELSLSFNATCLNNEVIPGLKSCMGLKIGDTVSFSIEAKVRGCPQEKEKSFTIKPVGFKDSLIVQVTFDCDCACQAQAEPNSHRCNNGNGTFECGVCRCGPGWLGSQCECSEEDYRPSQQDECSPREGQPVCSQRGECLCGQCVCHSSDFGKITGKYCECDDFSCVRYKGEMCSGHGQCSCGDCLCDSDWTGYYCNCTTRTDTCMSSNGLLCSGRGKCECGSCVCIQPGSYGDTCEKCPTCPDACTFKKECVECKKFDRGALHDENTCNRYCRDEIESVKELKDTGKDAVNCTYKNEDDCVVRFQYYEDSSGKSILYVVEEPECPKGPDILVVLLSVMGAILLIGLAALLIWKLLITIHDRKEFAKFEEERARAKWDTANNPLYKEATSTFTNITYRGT
- Sequence (P08514 32-887 limits assumed): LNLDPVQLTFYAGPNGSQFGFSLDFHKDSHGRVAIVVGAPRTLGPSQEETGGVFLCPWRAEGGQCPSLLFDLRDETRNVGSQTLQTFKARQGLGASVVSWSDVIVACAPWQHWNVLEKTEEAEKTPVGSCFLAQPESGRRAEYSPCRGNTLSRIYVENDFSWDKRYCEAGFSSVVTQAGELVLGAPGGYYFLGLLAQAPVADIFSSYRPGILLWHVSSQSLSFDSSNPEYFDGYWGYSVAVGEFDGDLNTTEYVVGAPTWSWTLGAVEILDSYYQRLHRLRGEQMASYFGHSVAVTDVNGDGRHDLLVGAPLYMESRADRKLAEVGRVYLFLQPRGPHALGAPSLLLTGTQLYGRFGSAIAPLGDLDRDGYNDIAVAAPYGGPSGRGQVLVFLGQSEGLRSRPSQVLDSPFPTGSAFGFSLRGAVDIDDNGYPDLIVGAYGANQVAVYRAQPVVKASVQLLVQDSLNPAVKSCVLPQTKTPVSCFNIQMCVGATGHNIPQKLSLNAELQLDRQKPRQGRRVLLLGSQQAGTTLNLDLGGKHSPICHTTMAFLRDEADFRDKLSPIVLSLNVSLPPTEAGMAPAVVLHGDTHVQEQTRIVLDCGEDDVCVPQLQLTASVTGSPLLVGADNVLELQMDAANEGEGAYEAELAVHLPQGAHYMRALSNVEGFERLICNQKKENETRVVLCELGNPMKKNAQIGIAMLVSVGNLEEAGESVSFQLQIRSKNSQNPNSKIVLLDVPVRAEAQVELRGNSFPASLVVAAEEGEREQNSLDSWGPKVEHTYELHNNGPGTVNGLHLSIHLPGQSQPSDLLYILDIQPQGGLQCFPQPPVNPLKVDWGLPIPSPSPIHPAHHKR
- Sequence (P08514 891-1039 limits assumed): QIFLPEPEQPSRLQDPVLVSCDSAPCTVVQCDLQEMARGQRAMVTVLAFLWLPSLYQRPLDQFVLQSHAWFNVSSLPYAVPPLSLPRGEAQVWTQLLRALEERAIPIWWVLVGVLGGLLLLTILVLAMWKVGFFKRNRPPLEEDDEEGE
- experiment description: Inhibition of human alphaIIb-beta3 integrin in platelet aggregation assay
endpoint label: IC50 (nM)

[
  {
    "entry smiles": "O=C(NC[C@H](NS(=O)(=O)c1ccccc1)C(=O)O)c1ccc(OCCC2CCNCC2)cc1",
    "measured on": "Integrin alpha-IIb/beta-3 (Homo sapiens, UniProt P05106+P08514)",
    "endpoint value": 10
  }
]

* * *

- measured on: Integrin alpha-V/beta-3 (Homo sapiens, UniProt P05106+P06756)
- Sequence (P05106 27-788 limits assumed): as the sequence (P05106 27-788 limits assumed) above
- Sequence (P06756 31-889 limits assumed): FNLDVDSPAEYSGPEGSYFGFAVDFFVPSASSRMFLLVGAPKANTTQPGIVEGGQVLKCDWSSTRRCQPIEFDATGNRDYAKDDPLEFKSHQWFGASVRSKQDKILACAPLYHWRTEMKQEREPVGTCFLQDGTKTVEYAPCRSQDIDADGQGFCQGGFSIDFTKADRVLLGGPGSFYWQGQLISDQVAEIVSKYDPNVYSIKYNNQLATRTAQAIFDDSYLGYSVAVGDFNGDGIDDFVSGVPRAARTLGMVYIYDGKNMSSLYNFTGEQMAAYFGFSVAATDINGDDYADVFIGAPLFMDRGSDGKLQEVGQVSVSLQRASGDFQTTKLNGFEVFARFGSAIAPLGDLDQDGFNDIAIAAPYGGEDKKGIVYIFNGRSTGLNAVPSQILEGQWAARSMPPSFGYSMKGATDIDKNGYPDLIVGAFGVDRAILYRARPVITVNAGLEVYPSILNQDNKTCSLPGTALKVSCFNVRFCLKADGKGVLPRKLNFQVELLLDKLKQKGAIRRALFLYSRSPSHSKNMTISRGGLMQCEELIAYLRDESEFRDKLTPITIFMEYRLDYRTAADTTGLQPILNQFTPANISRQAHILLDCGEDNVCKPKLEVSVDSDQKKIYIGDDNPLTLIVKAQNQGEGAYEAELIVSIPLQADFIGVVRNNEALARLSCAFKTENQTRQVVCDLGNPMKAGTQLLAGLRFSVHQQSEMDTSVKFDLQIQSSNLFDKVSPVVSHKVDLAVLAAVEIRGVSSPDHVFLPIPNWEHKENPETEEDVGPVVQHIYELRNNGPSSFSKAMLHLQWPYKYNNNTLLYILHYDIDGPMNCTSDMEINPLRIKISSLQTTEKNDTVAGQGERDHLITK
- Sequence (P06756 891-1048 limits assumed): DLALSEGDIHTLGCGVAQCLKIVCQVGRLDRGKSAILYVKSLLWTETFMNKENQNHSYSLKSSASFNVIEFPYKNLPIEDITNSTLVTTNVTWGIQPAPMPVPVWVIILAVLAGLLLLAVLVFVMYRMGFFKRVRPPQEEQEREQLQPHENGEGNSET
- experiment description: Inhibition of binding to human Vitronectin receptor (integrin alphaV-beta3)
- Assay type: protein-complex assay

[
  {
    "compound": "CC1(C)[C@@H]2CC[C@@]1(CS(=O)(=O)N[C@@H](CNC(=O)c1ccc(CCc3ccc4c(n3)NCCC4)cc1)C(=O)O)C(=O)C2",
    "operator": "=",
    "IC50 [nM]": 0.11
  },
  {
    "compound": "Nc1cccc(CCc2ccc(C(=O)NC[C@H](NS(=O)(=O)c3ccccc3)C(=O)O)cc2)n1",
    "operator": "=",
    "IC50 [nM]": 0.08
  },
  {
    "compound": "O=C(NC[C@H](NS(=O)(=O)c1ccccc1)C(=O)O)c1ccc(OCCC2CCNCC2)cc1",
    "operator": ">",
    "IC50 [nM]": 1000
  },
  {
    "compound": "O=C(O)CC(NC(=O)CCCCc1ccc2c(n1)NCCC2)c1cncnc1 (configuration not stated)",
    "operator": "=",
    "IC50 [nM]": 3.3
  },
  {
    "compound": "O=C(NC[C@H](NS(=O)(=O)c1ccccc1)C(=O)O)c1ccc(N2CCNCC2)cc1",
    "operator": ">",
    "IC50 [nM]": 1000
  },
  {
    "compound": "N=C(N)NCCC[C@H](N)C(=O)NCC(=O)N[C@@H](CC(=O)O)C(=O)O",
    "operator": ">",
    "IC50 [nM]": 10000
  },
  {
    "compound": "CCCCS(=O)(=O)N[C@@H](Cc1ccc(OCCCCC2CCNCC2)cc1)C(=O)O",
    "operator": ">",
    "IC50 [nM]": 1000
  }
]
